B1: library; numbered along this chain (parent)
chain: MAAAGGARLLRAASAVLGGPAGRWLHHAGSRAGSSGLLRNRGPGGSAEASRSLSVSARARSSSEDKITVHFINRDGETLTTKGKVGDSLLDVVVENNLDIDGFGACEGTLACSTCHLIFEDHIYEKLDAITDEENDMLDLAYGLTDRSRLGCQICLTKSMDNMTVRVPETVADARQSIDVGKTS

Variants of: B1
Experiment: scaled log2 fold change in cell abundance, elesclomol vs control (0 = silent mean, 1 = nonsense mean) (scaled log2 ratio); higher = higher viability under elesclomol (loss of FDX1 cuproptosis function);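 also: variant abundance is its share of total variant reads in each endpoint sample, from next-generation sequencing of the integrated ORF PCR-amplified out of genomic DNA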
Conditions: with ABC1 FDX1 KO; elesclomol 5 nM; glucose 10 mM; 14 days
Listed variants paired with reported scaled log2 fold change

Example results:
• N97Q = -0.273
• D121M = -0.556
• V165M = -0.123

// query Hello, please tell me recorded scaled log2 fold change for this one: `S52I`
// result -0.0467

// query Hello, please tell me recorded scaled log2 fold change for this one: `M160D`
// result -0.132

// query Hello, please tell me recorded scaled log2 fold change for this one: `C115V`
// result 1.07

// query Hello, please tell me recorded scaled log2 fold change for this one: `F119P`
// result 0.974

// query Hello, please tell me recorded scaled log2 fold change for this one: `C155L`
// result 0.0756

// query Hello, please tell me recorded scaled log2 fold change for this one: `G44T`
// result -0.238

// query Hello, please tell me recorded scaled log2 fold change for this one: `G22A`
// result 0.412

// query Hello, please tell me recorded scaled log2 fold change for this one: `S14A`
// result 0.422
